molecular target: rat H3R (Rattus norvegicus, UniProt Q9QYN8)
Sequence (Q9QYN8 whole entry): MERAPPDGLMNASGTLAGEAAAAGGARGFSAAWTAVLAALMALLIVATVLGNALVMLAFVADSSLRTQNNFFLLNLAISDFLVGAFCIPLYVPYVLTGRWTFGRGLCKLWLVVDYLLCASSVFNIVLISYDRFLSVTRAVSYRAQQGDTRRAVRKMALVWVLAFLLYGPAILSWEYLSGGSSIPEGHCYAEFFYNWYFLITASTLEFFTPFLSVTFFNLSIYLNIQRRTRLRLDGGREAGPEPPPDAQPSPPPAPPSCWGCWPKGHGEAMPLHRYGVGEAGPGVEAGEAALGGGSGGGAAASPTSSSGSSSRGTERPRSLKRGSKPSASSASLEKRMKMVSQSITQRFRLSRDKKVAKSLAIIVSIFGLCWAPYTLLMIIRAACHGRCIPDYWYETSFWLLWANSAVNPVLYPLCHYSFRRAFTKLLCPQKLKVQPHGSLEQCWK
property-label: IC50 (nM)
The reply should contain only the number, in nM.

Short answer please: IC50, rat H3R (Rattus norvegicus, UniProt Q9QYN8), entry COc1ccc(N2C(=O)CCc3cc(OCCCN4CCC[C@H]4C)ccc32)cc1
2.74

* * *

Field: efflux ratio at 2 h, 1 µM. Provide a value for each of the molecules that follow.
molecular target: P-glycoprotein (MDR1) (Homo sapiens, UniProt P08183); construct: expressed in transfected cells; host or cells: LLC-GA5-COL300; assay: P-glycoprotein-mediated transcellular transport, LLC-GA5-COL300 cells; assay type: in vitro ADME; details: human, LLC-PK1; ER=Papp, b to a/Papp, a to b; LLC-GA5-COL300 cells
Sequence (P08183 whole entry): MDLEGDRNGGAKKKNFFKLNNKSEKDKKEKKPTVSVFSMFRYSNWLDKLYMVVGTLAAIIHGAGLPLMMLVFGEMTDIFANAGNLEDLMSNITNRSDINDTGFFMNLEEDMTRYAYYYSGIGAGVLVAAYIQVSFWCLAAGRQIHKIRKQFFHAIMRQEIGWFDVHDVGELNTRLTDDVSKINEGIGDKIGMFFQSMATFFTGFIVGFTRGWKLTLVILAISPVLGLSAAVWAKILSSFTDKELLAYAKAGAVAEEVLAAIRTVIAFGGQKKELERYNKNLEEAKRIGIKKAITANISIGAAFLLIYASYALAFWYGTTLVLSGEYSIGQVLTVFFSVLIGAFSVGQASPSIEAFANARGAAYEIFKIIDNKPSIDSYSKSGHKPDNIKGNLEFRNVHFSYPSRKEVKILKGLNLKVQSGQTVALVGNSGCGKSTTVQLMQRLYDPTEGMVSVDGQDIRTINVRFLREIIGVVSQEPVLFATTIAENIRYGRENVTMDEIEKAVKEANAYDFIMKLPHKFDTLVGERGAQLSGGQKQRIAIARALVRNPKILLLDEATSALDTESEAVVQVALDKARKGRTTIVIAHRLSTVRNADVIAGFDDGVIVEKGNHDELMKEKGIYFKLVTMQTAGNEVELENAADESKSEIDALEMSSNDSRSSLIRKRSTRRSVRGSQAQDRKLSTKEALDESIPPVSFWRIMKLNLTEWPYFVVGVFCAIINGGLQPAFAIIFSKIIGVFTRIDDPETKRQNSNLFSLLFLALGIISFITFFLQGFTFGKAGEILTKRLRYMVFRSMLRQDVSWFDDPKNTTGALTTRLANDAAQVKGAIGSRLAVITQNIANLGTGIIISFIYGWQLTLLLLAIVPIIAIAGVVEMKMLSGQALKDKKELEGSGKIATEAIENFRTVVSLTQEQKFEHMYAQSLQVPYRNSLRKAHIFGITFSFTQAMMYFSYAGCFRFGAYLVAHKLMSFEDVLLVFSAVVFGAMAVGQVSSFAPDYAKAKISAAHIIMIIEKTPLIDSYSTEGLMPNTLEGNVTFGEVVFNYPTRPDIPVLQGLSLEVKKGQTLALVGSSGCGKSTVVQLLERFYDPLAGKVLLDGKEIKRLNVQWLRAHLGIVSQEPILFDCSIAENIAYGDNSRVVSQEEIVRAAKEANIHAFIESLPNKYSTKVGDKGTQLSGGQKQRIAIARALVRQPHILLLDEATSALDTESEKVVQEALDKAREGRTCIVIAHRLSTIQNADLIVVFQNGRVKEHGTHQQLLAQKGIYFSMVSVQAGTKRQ
Please respond with just the number, no unit label.

Look at this molecule and give its reported efflux ratio at 2 h, 1 µM. COc1ccc(N2C(=O)CCc3cc(OC4CCN(C5CCC5)CC4)ccc32)cn1 [TASP0410457]
1.64

# iterate: COc1ccc(N2C(=O)CCc3cc(OCCCN4CCC[C@H]4C)ccc32)cc1 [TASP0390136]
6.29

For COc1ccc(N2C(=O)CCc3cc(OC4CCN(C5CCC5)CC4)ccc32)cc1 [TASP0434988] then?
2.14

# credit: paper PMC4747952
